Hello, the source for this data is paper PMC7948503, in case you need it.

- assayed.system: T1, Rluc-ADGRG2-ΔGPS-β F671A (mouse, UniProt Q8CJ12-3 38-995, F671A)
- T1 construct: ADGRG2 (GPR64), mouse, ADGRG2-ΔGPS-β: the entire ECD removed; source: HEK293, transfected, on cells; not shown: Rluc, N-terminal, kept
- T1 sequence (Q8CJ12 other isoform, or with tags, fused parts or gaps F671A | F671A | F671A F671A): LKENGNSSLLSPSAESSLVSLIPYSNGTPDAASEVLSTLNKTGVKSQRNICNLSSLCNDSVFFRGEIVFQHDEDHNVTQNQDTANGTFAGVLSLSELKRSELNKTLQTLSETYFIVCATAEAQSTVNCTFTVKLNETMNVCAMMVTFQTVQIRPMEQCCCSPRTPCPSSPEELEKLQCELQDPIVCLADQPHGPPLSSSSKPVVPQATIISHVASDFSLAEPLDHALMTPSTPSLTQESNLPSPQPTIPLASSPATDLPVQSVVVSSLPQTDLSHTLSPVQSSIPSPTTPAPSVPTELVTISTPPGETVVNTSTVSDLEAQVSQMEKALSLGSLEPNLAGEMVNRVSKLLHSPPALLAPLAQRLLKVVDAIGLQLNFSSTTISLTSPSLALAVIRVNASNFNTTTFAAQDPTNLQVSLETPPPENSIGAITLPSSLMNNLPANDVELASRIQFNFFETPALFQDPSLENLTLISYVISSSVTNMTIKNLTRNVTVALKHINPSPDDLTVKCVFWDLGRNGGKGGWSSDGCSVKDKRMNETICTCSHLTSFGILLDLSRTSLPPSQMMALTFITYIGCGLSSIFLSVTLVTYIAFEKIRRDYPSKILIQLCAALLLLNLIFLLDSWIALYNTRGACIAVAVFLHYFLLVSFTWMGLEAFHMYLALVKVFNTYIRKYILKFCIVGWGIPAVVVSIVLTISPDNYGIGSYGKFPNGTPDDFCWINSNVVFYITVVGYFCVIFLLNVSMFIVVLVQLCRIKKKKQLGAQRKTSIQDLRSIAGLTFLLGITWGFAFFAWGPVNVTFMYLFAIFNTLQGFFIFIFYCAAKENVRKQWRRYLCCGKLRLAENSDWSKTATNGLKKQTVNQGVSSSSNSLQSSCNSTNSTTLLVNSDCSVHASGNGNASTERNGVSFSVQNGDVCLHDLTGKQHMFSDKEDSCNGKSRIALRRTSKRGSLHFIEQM
- assay.procedure: FRET or BRET; HEK293 cells transfected with Rluc-ADGRG2-ΔGPS-β WT or mutants, stimulated by increasing concentrations of FITC-conjugated VPM-p15; saturation curves fitted with GraphPad; each experiment repeated 6 times
- condition.label: one partner purified
Non-standard residues stand in square brackets, D forms with d. Primed or numbered codes have the meaning given here. No end group written: not given here. Phe(4-Me) = Cc1ccc(C[C@H](N)C(=O)O)cc1; FITC′ = not defined here
reported.property: EC50
Report as: number unit

// VS[Phe(4-Me)]GILLDLSRTSLP-{FITC′} [FITC-conjugated VPM-p15 (ADGRG2 Stachel peptide p15 T1V/F3Phe(4-Me))] : EC50 value = 880 nM
